Tested on: control serum LUMC (pooled serum of ten healthy hospital workers)
Format: binding, human
parameterMeasured: Control serum LUMC linear peptides

Sample records with Control serum LUMC linear peptides:
monomersequence=EAEAAVKPLLAPHHV parametermeasured="Control serum LUMC linear peptides" reportedvalue=0.4
monomersequence=LIMLIIFWFSLEIQD parametermeasured="Control serum LUMC linear peptides" reportedvalue=1.1

The reported control serum LUMC (pooled serum of ten healthy hospital workers) Control serum LUMC linear peptides of VKPLLAPHHVVAVIQ is 0.6

The reported control serum LUMC (pooled serum of ten healthy hospital workers) Control serum LUMC linear peptides of KASTQREAEAAVKPL is 0.3

----------
Test system: control serum LUMC (pooled serum of ten healthy hospital workers)
Format: binding, human
Threshold-based label: Control serum LUMC linear peptides under 0.5 gives T, Control serum LUMC linear peptides not under 0.5 gives F.

monomersequence=TQREAEAAVKPLLAP group=T
monomersequence=STQREAEAAVKPLLA group=F
monomersequence=FLVLIMLIIFWFSLE group=F
monomersequence=EIQLLAAVGEILLLE group=F
monomersequence=LPPCYNFLKEQHCQK group=T
monomersequence=IQEIQLLAAVGEILL group=F
monomersequence=IMLIIFWFSLEIQDL group=F
monomersequence=APHHVVAVIQEIQLL group=F

[ask] Below 0.5 on Control serum LUMC linear peptides? Entry LAFLLFLVLIMLIIF
[reply] T

[ask] Below 0.5 on Control serum LUMC linear peptides? Entry LKEQHCQKASTQREA
[reply] T

[ask] Below 0.5 on Control serum LUMC linear peptides? Entry LIIFWFSLEIQDLEE
[reply] F

[ask] Below 0.5 on Control serum LUMC linear peptides? Entry NELTLIDFYLCFLAF
[reply] F

[ask] Below 0.5 on Control serum LUMC linear peptides? Entry HCQKASTQREAEAAV
[reply] F

[ask] Below 0.5 on Control serum LUMC linear peptides? Entry CFLAFLLFLVLIMLI
[reply] T
